# measurement target: T1, human IgEλ (U266 derived) (human, UniProt P01854-1 1-428)
# T1 construct: Whole IgE purified from U266 cells (Ikeyama et al. 1986); labelled with europium cryptate or biotin in some assays; also called human IgE (U266-derived); human IgE lambda
# T1 sequence (P01854 other isoform, or with tags, fused parts or gaps): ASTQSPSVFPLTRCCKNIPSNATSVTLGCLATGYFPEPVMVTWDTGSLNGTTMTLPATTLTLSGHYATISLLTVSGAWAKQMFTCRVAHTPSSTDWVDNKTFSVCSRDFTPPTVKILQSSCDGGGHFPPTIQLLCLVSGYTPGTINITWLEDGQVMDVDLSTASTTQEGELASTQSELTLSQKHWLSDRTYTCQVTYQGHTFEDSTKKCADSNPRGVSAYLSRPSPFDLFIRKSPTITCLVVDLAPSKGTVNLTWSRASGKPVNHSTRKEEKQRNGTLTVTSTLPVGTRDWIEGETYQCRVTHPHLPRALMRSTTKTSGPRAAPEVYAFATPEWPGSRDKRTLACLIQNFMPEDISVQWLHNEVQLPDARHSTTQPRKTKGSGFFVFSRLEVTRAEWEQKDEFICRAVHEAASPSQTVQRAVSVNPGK
# test method notes: SPR (BIAcore 2000): IgG captured on protein G', IgE as analyte, bivalent analyte model; geomean

binder: Antibody 12 IgG (antibody, V domains shown, Whole human IgG (section 1.4: IgG1)) VH: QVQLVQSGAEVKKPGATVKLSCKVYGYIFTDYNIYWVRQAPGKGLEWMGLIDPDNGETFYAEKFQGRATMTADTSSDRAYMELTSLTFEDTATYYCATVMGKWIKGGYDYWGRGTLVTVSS VL: QSVLTQPPSVSGAPGQRVTISCTGSSSNIGAGYDVHWYQQLPGTAPKLLIYDNFNRPSGVPDRFSGSKSGTSASLAIIGLQTEDEADYYCQSYDSSIDHSPFGTGTKLTVL
Kd [nM]: 2.3
